- Experimental target: p38a activated, mitogen-activated protein kinase-activated protein kinase 2 (MAPKAP-K2 or MK-2) enzyme (Homo sapiens (Human))
- Sequence (P49137 whole entry): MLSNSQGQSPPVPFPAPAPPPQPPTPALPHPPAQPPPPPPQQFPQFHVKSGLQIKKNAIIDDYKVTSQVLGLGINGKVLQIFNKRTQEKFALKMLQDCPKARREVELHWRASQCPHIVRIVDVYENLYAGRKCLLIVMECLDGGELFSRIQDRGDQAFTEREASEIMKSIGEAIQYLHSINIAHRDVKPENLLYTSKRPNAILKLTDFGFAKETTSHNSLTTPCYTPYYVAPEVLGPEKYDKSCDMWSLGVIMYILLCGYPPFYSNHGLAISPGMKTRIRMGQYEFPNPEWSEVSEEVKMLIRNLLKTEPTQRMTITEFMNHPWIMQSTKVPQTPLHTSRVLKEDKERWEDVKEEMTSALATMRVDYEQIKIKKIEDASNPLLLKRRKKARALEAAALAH
- Method notes: MK2 Omnia continuous-read kinase assay for compound potency
- Details: [MK-2]=0.4 nM, [ATP]=1.0 mM, [ST3-Sox]=10 μM
Measured quantity: IC50

Known results for compounds:
| Compound | IC50 |
| --- | --- |
| C=CC(=O)Nc1cc(-c2cc(-c3cc4c(s3)C(=O)N[C@H](C)CN4)ccn2)ccc1OCCOC | > 1 µM |
| C=CC(=O)N1CCc2ccc(NC(=O)c3ccc4cc5n(c4c3)C3(CCC3)CNC5=O)cc21 | < 0.1 µM |
| C=CC(=O)Nc1cc(-c2cc(-c3cc4c([nH]3)C3(CCCNC3)CNC4=O)ccn2)cc(C(F)(F)F)c1 (centres unmarked) | < 0.1 µM |

Look up IC50: C=CC(=O)Nc1cccc(-c2cc3c(ccc4c5c([nH]c43)CCC5=O)cn2)c1
0.101 to 0.5 µM

IC50 for C=CC(=O)Nc1cc(-c2cc(-c3cc4c([nH]3)C3(CCCNC3)CNC4=O)ccn2)ccc1OCCOC (centres unmarked) ?
< 0.1 µM
